Tested on: Echinochloa crus-galli
PROTOCOL TEXT: Test Example 12: herbicidal effect test by treatment during growing period in paddy field
Assay type: in vivo
CONDITION SET: 120 g/10a; treatment seven days after sowing in flooded paddy pot; assessed 14 days after treatment
# Lookup of reported Weed suppression rate (%) Echinochloa crus-galli keyed by entry
Returns: string containing the numeric result and its unit.

Prompt: Notebook: pull reported Weed suppression rate (%) Echinochloa crus-galli for Echinochloa crus-galli, entry CC(C)N(C(=O)n1cnn(S(C)(=O)=O)c1=O)c1ccc(F)cc1Cl [Compound 11-19]
Response: 90%

Prompt: What Weed suppression rate (%) Echinochloa crus-galli appears in the records for this compound with Echinochloa crus-galli? CC(C)N(C(=O)n1cnn(S(=O)(=O)C(C)C)c1=O)c1ccc(Cl)cc1F [Compound 11-67]
Response: 100%

---
Prompt: Look up Weed suppression rate (%) Echinochloa crus-galli with Echinochloa crus-galli for this compound: CC(C)N(C(=O)n1cnn(S(=O)(=O)C2CCCCC2)c1=O)c1ccc(F)cc1F [Compound 11-294]
Response: 100%

Prompt: Fill in the recorded Weed suppression rate (%) Echinochloa crus-galli for this compound, with Echinochloa crus-galli as test system: CC(C)N(C(=O)n1cnn(S(C)(=O)=O)c1=O)c1ccc(F)c(F)c1F [Compound 11-15]
Response: 70%

###

Tested on: Monochoria vaginalis
PROTOCOL TEXT: Test Example 12: herbicidal effect test by treatment during growing period in paddy field
Format: in vivo
CONDITION SET: 120 g/10a; treatment seven days after sowing in flooded paddy pot; assessed 14 days after treatment
MEASURE NAME: Weed suppression rate (%) Monochoria vaginalis
Return type: number; implicit unit %.

Prompt: Query: Weed suppression rate (%) Monochoria vaginalis; subject: CC(C)N(C(=O)n1cnn(S(=O)(=O)c2ccccc2Cl)c1=O)c1c(F)cc(F)cc1F [Compound 11-516]
Response: 80

Prompt: I'd like to know its Weed suppression rate (%) Monochoria vaginalis. The compound in question is CC(C)N(C(=O)n1cnn(S(=O)(=O)C(C)C)c1=O)c1ccc(C(F)(F)F)cc1F [Compound 11-76]
Response: 80

Prompt: For the compound shown here, Cc1ccc(S(=O)(=O)n2ncn(C(=O)N(c3ccccc3F)C(C)C)c2=O)cc1 [Compound 11-627] , give the reported Weed suppression rate (%) Monochoria vaginalis.
Response: 80

Prompt: Form field: reported Weed suppression rate (%) Monochoria vaginalis of CCN(CC)C(=O)n1cnn(S(=O)(=O)c2ccc(F)cc2)c1=O [Compound 11-463]
Response: 80

Prompt: Fill in: Weed suppression rate (%) Monochoria vaginalis of CC(C)N(C(=O)n1cnn(S(=O)(=O)c2ccccc2Cl)c1=O)c1ccccc1F [Compound 11-502] is ___
Response: 80

Prompt: // lookup Weed suppression rate (%) Monochoria vaginalis for Cc1ccc(N(C(=O)n2cnn(S(=O)(=O)C3CC3)c2=O)C(C)C)c(F)c1 [Compound 11-212]
Response: 80

Prompt: Please look up its Weed suppression rate (%) Monochoria vaginalis: CC(C)N(C(=O)n1cnn(S(=O)(=O)c2ccccc2F)c1=O)c1ccccc1F [Compound 11-392]
Response: 80

Prompt: Can you share its Weed suppression rate (%) Monochoria vaginalis? I mean this compound: COc1ccc(S(=O)(=O)n2ncn(C(=O)N(c3c(F)cccc3F)C(C)C)c2=O)cc1 [Compound 11-1151]
Response: 90

###

Item-by-item account of Weed suppression rate (%) Echinochloa crus-galli
Tested on: Echinochloa crus-galli
PROTOCOL TEXT: Test Example 12: herbicidal effect test by treatment during growing period in paddy field
Assay type: in vivo
CONDITION SET: 120 g/10a; treatment seven days after sowing in flooded paddy pot; assessed 14 days after treatment
// units = %; emit number, no label

Answered cases to consult:
Prompt: What value of measured Weed suppression rate (%) Echinochloa crus-galli is listed for CC(C)N(C(=O)n1cnn(S(=O)(=O)C2CC2)c1=O)c1ccc(F)cc1 ?
Response: 90

Prompt: Quick one: Weed suppression rate (%) Echinochloa crus-galli for O=C(N(CC(F)(F)F)c1ccc(F)cc1F)n1cnn(S(=O)(=O)C2CCCCC2)c1=O ?
Response: 90

Prompt: Look up Weed suppression rate (%) Echinochloa crus-galli for this compound: CN(C(=O)n1cnn(S(=O)(=O)c2ccc(Cl)cc2)c1=O)c1ccc(F)cc1F
Response: 80

Prompt: Name the reported Weed suppression rate (%) Echinochloa crus-galli value associated with the compound CC(C)N(C(=O)n1cnn(S(=O)(=O)C2CCCCC2)c1=O)c1ccc(F)c(F)c1F
Response: 100

Prompt: Give the measured Weed suppression rate (%) Echinochloa crus-galli of CC(C)N(C(=O)n1cnn(S(=O)(=O)c2ccccc2F)c1=O)c1ccc(F)c(F)c1F .
Response: 100

Prompt: Which Weed suppression rate (%) Echinochloa crus-galli is listed for Cc1cc(F)ccc1N(C(=O)n1cnn(S(=O)(=O)C2CC2)c1=O)C(C)C ?
Response: 100

---
Prompt: GET /values?readout=Weed suppression rate (%) Echinochloa crus-galli&item= CC(C)N(C(=O)n1cnn(S(=O)(=O)c2cccs2)c1=O)c1ccc(Br)cc1Cl
Response: 100

Prompt: Consider the compound CC(C)N(C(=O)n1cnn(S(=O)(=O)C(C)C)c1=O)c1ccc(C(F)(F)F)cc1F and give its measured Weed suppression rate (%) Echinochloa crus-galli.
Response: 100

Prompt: Can you share its Weed suppression rate (%) Echinochloa crus-galli? I mean this compound: Cc1ccc(N(C(=O)n2cnn(S(=O)(=O)c3cccc(C(F)(F)F)c3)c2=O)C(C)C)c(F)c1
Response: 90

Prompt: I am curious: what Weed suppression rate (%) Echinochloa crus-galli value has been reported for CC(C)N(C(=O)n1cnn(S(=O)(=O)C(C)C)c1=O)c1ccccc1 ?
Response: 90

Prompt: For CC(C)N(C(=O)n1cnn(S(=O)(=O)c2ccccc2F)c1=O)c1c(F)cccc1F , what is its reported Weed suppression rate (%) Echinochloa crus-galli?
Response: 100

Prompt: Field request: Weed suppression rate (%) Echinochloa crus-galli | item: CCC(C)S(=O)(=O)n1ncn(C(=O)N(c2ccc(F)cc2F)C(C)C)c1=O (centres unmarked)
Response: 90

###

Tested on: Echinochloa crus-galli
PROTOCOL TEXT: Test Example 12: herbicidal effect test by treatment during growing period in paddy field
Format: in vivo
CONDITION SET: 120 g/10a; treatment seven days after sowing in flooded paddy pot; assessed 14 days after treatment
// Weed suppression rate (%) Echinochloa crus-galli lookup, one value per entry
Express it in %; write the number only.

Worked examples, 4 compounds total:
Prompt: Any idea what its Weed suppression rate (%) Echinochloa crus-galli is? The compound is CC(C)N(C(=O)n1cnn(S(=O)(=O)c2cccs2)c1=O)c1c(F)cccc1F [Compound 11-1024]
Response: 100

Prompt: Given the compound CC(C)N(C(=O)n1cnn(S(=O)(=O)C2CCCCC2)c1=O)c1cccc(F)c1F [Compound 11-293] , what is its reported Weed suppression rate (%) Echinochloa crus-galli?
Response: 100

Prompt: GET /values?readout=Weed suppression rate (%) Echinochloa crus-galli&item= CC(C)N(C(=O)n1cnn(S(=O)(=O)c2c(F)c(F)c(F)c(F)c2F)c1=O)c1ccccc1F [Compound 11-801]
Response: 90

Prompt: Dear colleague, I am looking for the recorded Weed suppression rate (%) Echinochloa crus-galli of the following compound: CC(C)N(C(=O)n1cnn(S(=O)(=O)c2ccccc2)c1=O)c1ccc(Cl)cc1 [Compound 11-361]
Response: 90

Now look at this entry.
Prompt: Quick check: Weed suppression rate (%) Echinochloa crus-galli of CC(C)N(C(=O)n1cnn(S(=O)(=O)c2cccc(F)c2)c1=O)c1ccc(F)c(F)c1F [Compound 11-441] ?
Response: 100

###

Consider the following compounds and their measured Weed suppression rate (%) Monochoria vaginalis readings.
Tested on: Monochoria vaginalis
PROTOCOL TEXT: Test Example 12: herbicidal effect test by treatment during growing period in paddy field
Type: in vivo
CONDITION SET: 120 g/10a; treatment seven days after sowing in flooded paddy pot; assessed 14 days after treatment
Express the result in % but write the number alone.

Prompt: State the recorded Weed suppression rate (%) Monochoria vaginalis for this entry: CC(C)N(C(=O)n1cnn(S(=O)(=O)C(C)C)c1=O)c1ncc(Cl)cc1Cl [Compound 11-86]
Response: 90

Prompt: # Weed suppression rate (%) Monochoria vaginalis lookup, item CC(C)N(C(=O)n1cnn(S(=O)(=O)c2ccc(C(C)(C)C)cc2)c1=O)c1ccc(F)c(F)c1F [Compound 11-685]
Response: 70

Prompt: Could you share which Weed suppression rate (%) Monochoria vaginalis value was measured for CC(C)N(C(=O)n1cnn(S(=O)(=O)C2CCCCC2)c1=O)c1ccc(Cl)cc1Br [Compound 11-306] ?
Response: 70

Prompt: Which Weed suppression rate (%) Monochoria vaginalis is reported for this compound? CCN(CC)C(=O)n1cnn(S(=O)(=O)c2ccccc2)c1=O [Compound 11-352]
Response: 60

Prompt: Would you mind telling me what Weed suppression rate (%) Monochoria vaginalis value was observed for CC(C)N(C(=O)n1cnn(S(=O)(=O)c2ccc(F)cc2)c1=O)c1ccc(F)cc1Cl [Compound 11-482] ?
Response: 80

Further cases:
Prompt: Consider the compound CC(C)N(C(=O)n1cnn(S(=O)(=O)c2cccs2)c1=O)c1cccc(F)c1F [Compound 11-1021] and give its measured Weed suppression rate (%) Monochoria vaginalis.
Response: 90

Prompt: Fill in: Weed suppression rate (%) Monochoria vaginalis of CC(C)N(C(=O)n1cnn(S(=O)(=O)c2cccc(Cl)c2)c1=O)c1ccc(F)c(F)c1F [Compound 11-553] is ___
Response: 60

Prompt: Using the record for CC(C)N(C(=O)n1cnn(S(=O)(=O)c2ccccc2)c1=O)c1ccc(Cl)cc1 [Compound 11-361] , report its Weed suppression rate (%) Monochoria vaginalis.
Response: 80

Prompt: Any idea what Weed suppression rate (%) Monochoria vaginalis was measured for CC(C)N(C(=O)n1cnn(S(=O)(=O)C(C)C)c1=O)c1ccc(F)c(F)c1F [Compound 11-62] ?
Response: 100

Prompt: So what does the record say about Weed suppression rate (%) Monochoria vaginalis for CC(C)N(C(=O)n1cnn(S(=O)(=O)c2ccccc2Cl)c1=O)c1ccccc1 [Compound 11-501] ?
Response: 90
